# system-name: c-Src SH2;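 note: peptide library displayed on the E. coli surface as eCPX fusions, selected cells deep-sequenced, score is each peptide's frequency after selection divided by its frequency in the input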
# assay-notes: SH2 binding enrichment of the phosphorylated peptide, bacterial display (enrichment ratio); higher = better substrate or ligand; peptides without Tyr show the background
readout-label: SH2 binding enrichment
Form: value (number only, do not type unit).

// recorded SH2 binding enrichment for YRDMDYRSYPH [RBM10_Y41_R46H] : 0.938

Input EQKKFYNAMKK [SCN5A_Y1495_YF] . Output SH2 binding enrichment: 0.859

Field SH2 binding enrichment (entry TVLWLYTGTRP [UGT1A1_Y337_R336L] ) reads 1.06

Note to self: SH2 binding enrichment recorded for PVQAPYQKVVA [HBB_Y131_A130P] was 0.561

Please fill in: SH2 binding enrichment reported for VILENYGADID [DNAH5_Y596_L591V] = 0.454

// field: SH2 binding enrichment; key: GSESDYIVMPN [SCARB1_Y133] ; value = 0.455

Value of measured SH2 binding enrichment for the entry VPLLEYYRDIF [CDAN1_Y712] : 1.05

The reported value for KDFETYQPFQN [CTNND2_Y1157_YF] in terms of SH2 binding enrichment is 0.544

Recorded SH2 binding enrichment (sequence LPEENYQVLRF [ARHGAP1_Y365] ): 0.548

Looking up YCRITYDIFPF [INTS13_Y67_M66T] , I found its SH2 binding enrichment recorded as 1.42

The reported value for VHNLDYFKMTT [FGFR3_Y647_K650M_YF] in terms of SH2 binding enrichment is 0.56

The reported value for NHYKIYNPCAE [PTEN_Y68_L70P] in terms of SH2 binding enrichment is 0.427

Query IHKEFYDGLFP [BCR_Y561] yields SH2 binding enrichment of 0.913

The recorded SH2 binding enrichment for VTRDEYPSNPM [CEMIP2_Y1015_I1010V] is 0.564
